For each record, write down the corresponding Growth Rate.
test system: HEK-293T; experiment: Incucyte cell viability with HEK293T; assay type: toxicity, cell-based; settings: human, 24 h, 10 µM, compound concentration 10 uM, replicate number 1; also: unitless GR value; below 1 slowed growth and below 0 cell loss
Peptide text beside a SMILES is read from it.
Simply state the number, no unit and no words.

Sample CCN(CC)S(=O)(=O)c1cc(Nc2nccc(-c3ccnc(-c4ccc(NC(=O)NC)cc4)c3)n2)ccc1Cl ; Growth Rate observed: -0.42

Form field Growth Rate, entry C[C@H](CN[C@@H](C(=O)Nc1ccc(-c2cnn(C)c2)cn1)c1ccccc1)c1ccc(C#N)cc1 : 0.04

Growth Rate for Cc1ccc(C(=O)Nc2ccc(S(=O)(=O)[O-])c3cc(S(=O)(=O)[O-])cc(S(=O)(=O)[O-])c23)cc1NC(=O)c1cccc(NC(=O)Nc2cccc(C(=O)Nc3cc(C(=O)Nc4ccc(S(=O)(=O)[O-])c5cc(S(=O)(=O)[O-])cc(S(=O)(=O)[O-])c45)ccc3C)c2)c1.[Na+].[Na+].[Na+].[Na+].[Na+].[Na+] [SURAMIN HEXASODIUM] is 0.7

Lookup result for CSCC[C@H](NC(=O)[C@H](CC(=O)O)NC(C)=O)C(=O)N[C@@H](CCC(N)=O)C(=O)N[C@H](C=O)CC(=O)O.O=C(O)C(F)(F)F (Ac-DMQD-aldehyde) ; measured Growth Rate: 1

The reported value for Cc1cc(OCc2nnc(SC3CCCC3)n2-c2cccnc2)ccc1-c1ccc(S(C)(=O)=O)cc1 in terms of Growth Rate is -0.22

Form field Growth Rate, entry CC(C)[C@H](NC(=O)OCc1ccccc1)C(=O)NC(CC(=O)O)C(=O)CF (stereo partly drawn) : 1

# compound CC(C)[C@@H]1C(=O)N(S(C)(=O)=O)[C@@H]2CCN(C(=O)/C=C/CN3CCCCC3)[C@H]21.Cl ; its Growth Rate = 0.79

In plain terms, O=C(CCCCCCNC(=O)c1cnc(N(c2ccccc2)c2ccccc2Cl)nc1)NO [CITARINOSTAT] has a documented Growth Rate of 0.9
